Property: logD; scope: individual compounds
test: Lipophilicity, logD of compound in octanol/water by shake flask method; assay type: physicochemical
reported-endpoint: logD

{"chemical-smiles": "CC(C)n1cnnc1-c1cccc(N2Cc3c(CN)cccc3C2=O)n1", "result-value": 0.7}
{"chemical-smiles": "CCCn1cnnc1-c1cccc(N2Cc3c(cc(N4CCC[C@H]4C)nc3CNC)C2=O)n1", "result-value": 2.1}
{"chemical-smiles": "CCCn1cnnc1-c1cccc(N2Cc3c(cc(N(C)C(C)C)nc3CNC)C2=O)n1", "result-value": 2}
{"chemical-smiles": "CC[C@H](C)n1cnnc1-c1cccc(NC(=O)c2cccc3c2nc(CN)n3C)n1", "result-value": 2}
{"chemical-smiles": "COc1ccc2c(c1CN)CN(c1cccc(-c3nncn3[C@@H](C)CC(F)(F)F)n1)C2=O", "result-value": 0.7}

###

target: Mitogen-activated protein kinase kinase kinase kinase 1 (Homo sapiens, UniProt Q92918); assay: Inhibition of full-length recombinant human HPK1 (1 to 182 residues) extracted from baculovirus infected Sf21 cells using phospho-acceptor peptide as substrate incubated for 15 mins in presence of ATP by fluorescence based assay
Sequence (Q92918 whole entry, the tested form may be a part): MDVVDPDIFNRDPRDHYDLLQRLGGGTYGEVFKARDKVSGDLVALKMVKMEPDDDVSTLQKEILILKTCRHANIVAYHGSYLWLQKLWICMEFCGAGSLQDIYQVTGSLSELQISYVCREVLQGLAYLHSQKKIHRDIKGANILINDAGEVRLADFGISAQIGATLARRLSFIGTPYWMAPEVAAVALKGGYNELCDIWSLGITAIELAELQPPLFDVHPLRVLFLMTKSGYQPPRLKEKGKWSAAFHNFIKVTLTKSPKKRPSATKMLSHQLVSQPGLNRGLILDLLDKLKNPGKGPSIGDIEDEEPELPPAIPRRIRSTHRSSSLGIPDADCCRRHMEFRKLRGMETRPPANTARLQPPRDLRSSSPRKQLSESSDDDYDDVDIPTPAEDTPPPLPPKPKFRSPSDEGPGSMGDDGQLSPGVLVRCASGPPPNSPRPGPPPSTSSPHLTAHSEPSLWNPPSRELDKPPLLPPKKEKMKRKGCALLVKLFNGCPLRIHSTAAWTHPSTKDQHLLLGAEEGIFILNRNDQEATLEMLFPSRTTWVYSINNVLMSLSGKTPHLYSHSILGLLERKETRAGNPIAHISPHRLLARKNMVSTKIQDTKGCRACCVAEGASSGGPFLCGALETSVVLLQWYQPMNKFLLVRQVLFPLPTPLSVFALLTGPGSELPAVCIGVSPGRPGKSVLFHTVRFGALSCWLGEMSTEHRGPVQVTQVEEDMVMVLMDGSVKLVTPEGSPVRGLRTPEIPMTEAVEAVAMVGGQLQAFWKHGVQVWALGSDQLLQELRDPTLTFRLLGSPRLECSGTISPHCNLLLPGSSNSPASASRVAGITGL
reported-endpoint: IC50 (nM)

{"compound": "CC(C)n1cnnc1-c1cccc(N2Cc3c(CN)cccc3C2=O)n1", "reported-endpoint": "IC50", "unit-descriptor": "nM", "lt-gt-eq": "=", "result-value": 194}
{"compound": "CCCn1cnnc1-c1cccc(N2Cc3c(cc(N(C)C(C)C)nc3CNC)C2=O)n1", "reported-endpoint": "IC50", "unit-descriptor": "nM", "lt-gt-eq": "<", "result-value": 0.13}
{"compound": "CC[C@@H](N)c1nc(N2CCC[C@H]2C)cc2c1CN(c1cccc(-c3nncn3CC)n1)C2=O", "reported-endpoint": "IC50", "unit-descriptor": "nM", "lt-gt-eq": "<", "result-value": 0.09}
{"compound": "COc1ccc(CC#N)cc1C(=O)Nc1cccc(-c2nncn2C(C)C)n1", "reported-endpoint": "IC50", "unit-descriptor": "nM", "lt-gt-eq": "=", "result-value": 14}
{"compound": "CNCc1nc(N(C)C(C)C)cc2c1CN(c1cccc(-c3nnc4n3[C@@H](CF)CC4)n1)C2=O", "reported-endpoint": "IC50", "unit-descriptor": "nM", "lt-gt-eq": "=", "result-value": 0.07}
{"compound": "CC(C)n1cnnc1-c1cccc(NC(=O)c2cccc3c2OCC(N)C3)n1 (centres undefined)", "reported-endpoint": "IC50", "unit-descriptor": "nM", "lt-gt-eq": "=", "result-value": 7.7}
{"compound": "C[C@@H]1CCCN1c1cc2c(c([C@@H](C)N)n1)CN(c1cccc(-c3nnc4n3[C@@H](C)CC4)n1)C2=O", "reported-endpoint": "IC50", "unit-descriptor": "nM", "lt-gt-eq": "<", "result-value": 0.05}
{"compound": "CNCc1nc(N(C)C)cc2c1CN(c1cccc(-c3nncn3C(C)C)n1)C2=O", "reported-endpoint": "IC50", "unit-descriptor": "nM", "lt-gt-eq": "=", "result-value": 0.15}
{"compound": "CNCc1cc(OC)cc2c1CN(c1cccc(-c3nncn3C(C)C)n1)C2=O", "reported-endpoint": "IC50", "unit-descriptor": "nM", "lt-gt-eq": "=", "result-value": 1.1}

Reference source: ChEMBL document CHEMBL6078692
